- target.or.test.system: α-glucosidase (Saccharomyces cerevisiae)
- experiment.summary: Glycosidase inhibition assay, α-glucosidase
- stated.conditions: read-out: α-Glc IC50; substrate at Km
measurement.type: IC50
Enter the number, and then the unit.

| molecule | IC50 |
| --- | --- |
| CCCCCCCCCN1[C@H](CO)[C@@H](O)[C@@H]1CO [Compound 25] | 0.6 µM |

Now for another entry.
Fill in reported IC50 for this entry: CCCCN1C[C@H](O)[C@@H](O)[C@H](O)[C@H]1CO [NB-DNJ, N-butyldeoxynojirimycin]
1030 µM

* * *

- target.or.test.system: α-galactosidase (green coffee beans) (Coffea arabica)
- Sequence (Q42656 16-378): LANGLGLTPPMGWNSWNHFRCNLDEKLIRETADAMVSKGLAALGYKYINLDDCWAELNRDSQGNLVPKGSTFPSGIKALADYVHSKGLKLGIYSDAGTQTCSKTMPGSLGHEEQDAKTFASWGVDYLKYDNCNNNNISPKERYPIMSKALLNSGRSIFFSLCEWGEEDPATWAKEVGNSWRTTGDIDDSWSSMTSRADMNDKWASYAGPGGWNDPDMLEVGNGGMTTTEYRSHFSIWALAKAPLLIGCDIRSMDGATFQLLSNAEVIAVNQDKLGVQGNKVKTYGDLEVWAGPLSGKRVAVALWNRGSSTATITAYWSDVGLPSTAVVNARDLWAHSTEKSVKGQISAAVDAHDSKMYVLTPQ
- experiment.summary: biochemical
- stated.conditions: 100 µM compound; substrate at Km
measurement.type: α-Gal % Ra (% remaining activity at 100 µM) (%)
Could you give me the number in %? Just the number is fine.

| compound | target.or.test.system | reported |
| --- | --- | --- |
| CCCCN1[C@H](CO)[C@@H](O)[C@@H]1CO | α-galactosidase (green coffee beans) (Coffea arabica) | 106 |
| CCCCN1C[C@@H](O)[C@@H](O)[C@@H](O)[C@H](O)[C@@H](O)C1 | α-galactosidase (green coffee beans) (Coffea arabica) | 100 |
| CCCCCCCCCN1C[C@@H](O)[C@@H](O)[C@@H](O)[C@H](O)[C@@H](O)C1 | α-galactosidase (green coffee beans) (Coffea arabica) | 100 |
| CCCCCCCCCN1[C@H](CO)[C@@H](O)[C@@H]1CO | α-galactosidase (green coffee beans) (Coffea arabica) | 66 |

Now for another entry.
Fill in reported α-Gal % Ra (% remaining activity at 100 µM) for this entry: OC[C@H]1NC[C@H](O)[C@@H](O)[C@H]1O [DGJ, 1-deoxygalactonojirimycin, reference compound]
0.05

* * *

Reported remaining activity at 100 µM values for a set of compounds
- target.or.test.system: α-galactosidase (green coffee beans) (Coffea arabica)
- experiment.summary: biochemical
- stated.conditions: read-out: α-Gal % Ra (% remaining activity at 100 µM)
Could you give me the number in %? Just the number is fine.

Recorded remaining activity at 100 µM, per entry:
| compound | reported |
| --- | --- |
| CCCCCCCCCN1CCC[C@@H](O)[C@H](O)[C@@H](O)C1 [Compound 2, (3S,4S,5R)-1-Nonylazocane-3,4,5-triol] | 100 |
| CCCCCCCCCN1[C@H](CO)C(O)[C@H]1CO [Compound 23] | 99 |

Now for another entry.
Fill in reported remaining activity at 100 µM for this entry: CCCCCCCCCN1C/C=C\[C@@H](O)[C@H](O)[C@@H](O)C1 [Compound 4]
100

* * *

- target.or.test.system: testicular β-glucosidase 2 (Rattus norvegicus, UniProt Q5M868)
- Sequence (Q5M868 1-912): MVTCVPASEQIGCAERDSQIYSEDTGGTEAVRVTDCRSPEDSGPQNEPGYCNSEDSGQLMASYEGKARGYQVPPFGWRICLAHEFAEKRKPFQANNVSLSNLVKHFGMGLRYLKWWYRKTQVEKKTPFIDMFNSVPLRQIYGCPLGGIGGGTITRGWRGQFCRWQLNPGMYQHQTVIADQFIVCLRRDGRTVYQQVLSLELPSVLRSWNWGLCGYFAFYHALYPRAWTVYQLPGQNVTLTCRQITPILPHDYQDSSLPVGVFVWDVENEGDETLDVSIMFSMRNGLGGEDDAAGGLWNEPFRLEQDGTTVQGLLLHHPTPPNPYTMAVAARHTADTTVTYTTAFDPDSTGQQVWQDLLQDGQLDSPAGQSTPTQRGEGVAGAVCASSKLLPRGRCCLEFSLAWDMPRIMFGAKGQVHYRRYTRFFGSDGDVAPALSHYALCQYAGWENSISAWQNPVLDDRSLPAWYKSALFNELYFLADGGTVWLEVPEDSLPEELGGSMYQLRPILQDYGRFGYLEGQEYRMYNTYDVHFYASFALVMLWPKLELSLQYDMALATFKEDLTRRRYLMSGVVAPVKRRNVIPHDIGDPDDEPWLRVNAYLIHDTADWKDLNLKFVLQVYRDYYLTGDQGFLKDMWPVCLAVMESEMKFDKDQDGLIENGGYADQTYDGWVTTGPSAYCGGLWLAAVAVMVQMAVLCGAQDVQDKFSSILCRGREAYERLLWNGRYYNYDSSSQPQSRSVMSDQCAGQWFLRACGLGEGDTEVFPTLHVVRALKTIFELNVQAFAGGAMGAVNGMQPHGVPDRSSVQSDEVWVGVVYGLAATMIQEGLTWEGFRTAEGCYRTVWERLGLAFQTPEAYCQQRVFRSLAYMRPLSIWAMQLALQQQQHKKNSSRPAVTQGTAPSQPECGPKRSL
measurement.type: IC50 (µM)
Could you give me the number in µM? Just the number is fine.

Recorded IC50, per entry:
| input.smiles | IC50 [µM] |
| --- | --- |
| CCCCCCCCCN1C/C=C\[C@@H](O)[C@H](O)[C@@H](O)C1 | 904 |
| CCCCCCCCCN1CCC[C@@H](O)[C@H](O)[C@@H](O)C1 | 803 |

Now for another entry.
Quote testicular β-glucosidase 2 (Rattus norvegicus, UniProt Q5M868) IC50 for entry "CCCCCCCCCN1[C@@H](CO)C(O)[C@@H]1CO" .
70

* * *

- Tested on: α-glucosidase (Saccharomyces cerevisiae)
- experiment.summary: Glycosidase inhibition assay, α-glucosidase
- Format: biochemical
- stated.conditions: 100 µM compound; substrate at Km
measurement.type: α-Glc % Ra (% remaining activity at 100 µM) (%)
Could you give me the number in %? Just the number is fine.

Recorded α-Glc % Ra (% remaining activity at 100 µM), per entry:
| compound | measurement.unit | reported |
| --- | --- | --- |
| CCCCN1C/C=C\[C@@H](O)[C@H](O)[C@@H](O)C1 | % | 81 |
| CCCCN1[C@H](CO)[C@@H](O)[C@@H]1CO | % | 65 |
| CCCCN1[C@H](CO)C(O)[C@H]1CO | % | 100 |
| CCCCCCCCCN1C[C@@H](O)[C@@H](O)[C@@H](O)[C@H](O)[C@@H](O)C1 | % | 84 |

Now for another entry.
Quote α-glucosidase (Saccharomyces cerevisiae) α-Glc % Ra (% remaining activity at 100 µM) for entry OC[C@H]1NC[C@H](O)[C@@H](O)[C@@H]1O [DNJ, 1-deoxynojirimycin, reference compound] .
34

* * *

- target.or.test.system: UniProt:P00722
- Sequence (P00722 2-1024): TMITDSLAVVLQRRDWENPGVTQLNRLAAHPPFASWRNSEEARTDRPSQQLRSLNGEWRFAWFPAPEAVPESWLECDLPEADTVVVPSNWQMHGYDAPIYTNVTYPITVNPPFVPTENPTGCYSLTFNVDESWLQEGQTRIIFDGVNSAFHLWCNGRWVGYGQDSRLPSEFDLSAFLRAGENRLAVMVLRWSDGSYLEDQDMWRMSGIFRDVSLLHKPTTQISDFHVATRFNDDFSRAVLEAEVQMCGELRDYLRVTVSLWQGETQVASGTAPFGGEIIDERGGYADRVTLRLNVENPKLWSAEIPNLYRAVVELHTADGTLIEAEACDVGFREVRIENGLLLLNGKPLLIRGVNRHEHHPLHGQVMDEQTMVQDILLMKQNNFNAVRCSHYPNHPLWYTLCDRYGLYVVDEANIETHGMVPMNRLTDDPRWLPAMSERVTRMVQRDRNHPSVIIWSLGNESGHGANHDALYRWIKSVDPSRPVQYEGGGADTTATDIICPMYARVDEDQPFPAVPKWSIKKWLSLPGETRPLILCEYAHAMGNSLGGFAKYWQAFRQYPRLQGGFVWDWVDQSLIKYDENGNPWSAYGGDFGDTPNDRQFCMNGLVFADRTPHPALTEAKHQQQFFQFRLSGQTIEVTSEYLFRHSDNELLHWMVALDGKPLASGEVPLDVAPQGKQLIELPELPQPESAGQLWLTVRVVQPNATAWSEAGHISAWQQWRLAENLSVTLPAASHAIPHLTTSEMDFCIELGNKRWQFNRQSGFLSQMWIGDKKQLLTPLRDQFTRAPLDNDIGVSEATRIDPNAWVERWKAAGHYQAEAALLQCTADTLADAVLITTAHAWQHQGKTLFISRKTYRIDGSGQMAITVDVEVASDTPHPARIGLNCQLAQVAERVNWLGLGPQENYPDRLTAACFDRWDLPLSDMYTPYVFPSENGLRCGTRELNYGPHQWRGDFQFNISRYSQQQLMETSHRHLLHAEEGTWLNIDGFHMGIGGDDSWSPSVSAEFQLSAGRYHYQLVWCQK
- experiment.summary: biochemical
- stated.conditions: 100 µM compound; substrate at Km
measurement.type: β-Gal % Ra (% remaining activity at 100 µM) (%)
Could you give me the number in %? Just the number is fine.

Recorded β-Gal % Ra (% remaining activity at 100 µM), per entry:
| molecule | target.or.test.system | reported |
| --- | --- | --- |
| CCCCN1C[C@@H](O)[C@@H](O)[C@@H](O)[C@H](O)[C@@H](O)C1 | UniProt:P00722 | 95 |
| CCCCCCCCCN1C[C@@H](O)[C@@H](O)[C@@H](O)[C@H](O)[C@@H](O)C1 | UniProt:P00722 | 92 |
| CCCCCCCCCN1[C@H](CO)[C@@H](O)[C@@H]1CO | UniProt:P00722 | 107 |

Fill in reported β-Gal % Ra (% remaining activity at 100 µM) for this entry: "CCCCN1[C@H](CO)[C@@H](O)[C@@H]1CO"
109

Fill in reported β-Gal % Ra (% remaining activity at 100 µM) for this entry: OC[C@H]1NC[C@H](O)[C@@H](O)[C@H]1O [DGJ, 1-deoxygalactonojirimycin, reference compound]
23

* * *

Reported β-Glc % Ra (% remaining activity at 100 µM) values for a set of compounds
- System: β-glucosidase (almond)
- experiment.summary: Glycosidase inhibition assay, β-glucosidase
- Type: biochemical
- stated.conditions: 100 µM compound; substrate at Km
Could you give me the number in %? Just the number is fine.

Recorded β-Glc % Ra (% remaining activity at 100 µM), per entry:
| input.smiles | measurement.unit | reported |
| --- | --- | --- |
| CCCCN1C/C=C\[C@@H](O)[C@H](O)[C@@H](O)C1 | % | 52 |
| CCCCN1C[C@@H](O)[C@@H](O)[C@@H](O)[C@H](O)[C@@H](O)C1 | % | 87 |
| CCCCCCCCCN1[C@@H](CO)C(O)[C@@H]1CO | % | 95 |

Now for another entry.
Fill in reported β-Glc % Ra (% remaining activity at 100 µM) for this entry: "CCCCN1CCC[C@@H](O)[C@H](O)[C@@H](O)C1"
37

* * *

- target.or.test.system: testicular β-glucosidase 2 (Rattus norvegicus, UniProt Q5M868)
- Sequence (Q5M868 1-912): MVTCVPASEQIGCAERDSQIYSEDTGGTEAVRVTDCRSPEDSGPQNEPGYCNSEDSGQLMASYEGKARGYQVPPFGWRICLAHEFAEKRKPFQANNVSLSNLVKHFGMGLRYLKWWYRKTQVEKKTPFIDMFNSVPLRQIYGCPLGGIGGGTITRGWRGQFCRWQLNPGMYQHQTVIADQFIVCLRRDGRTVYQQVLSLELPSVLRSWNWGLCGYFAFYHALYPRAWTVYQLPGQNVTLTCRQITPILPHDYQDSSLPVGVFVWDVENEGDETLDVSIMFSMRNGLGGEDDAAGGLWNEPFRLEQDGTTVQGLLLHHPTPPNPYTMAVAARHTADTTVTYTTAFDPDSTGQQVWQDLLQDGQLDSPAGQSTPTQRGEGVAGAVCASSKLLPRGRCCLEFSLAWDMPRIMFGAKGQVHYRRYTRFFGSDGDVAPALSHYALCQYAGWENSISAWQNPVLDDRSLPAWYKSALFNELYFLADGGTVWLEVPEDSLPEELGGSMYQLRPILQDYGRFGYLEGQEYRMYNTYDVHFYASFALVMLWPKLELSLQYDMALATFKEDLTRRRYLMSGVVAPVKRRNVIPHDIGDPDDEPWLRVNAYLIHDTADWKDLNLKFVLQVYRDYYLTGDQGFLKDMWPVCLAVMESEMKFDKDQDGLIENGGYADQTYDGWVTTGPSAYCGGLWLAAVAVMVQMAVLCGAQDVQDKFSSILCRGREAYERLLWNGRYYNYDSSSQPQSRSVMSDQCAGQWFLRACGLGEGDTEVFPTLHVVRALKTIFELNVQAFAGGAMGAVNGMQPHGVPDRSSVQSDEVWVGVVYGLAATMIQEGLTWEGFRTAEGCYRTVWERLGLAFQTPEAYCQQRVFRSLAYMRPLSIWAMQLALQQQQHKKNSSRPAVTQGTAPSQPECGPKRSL
pIC50: −log10 of the molar value.
measurement.type: pIC50

| input.smiles | pIC50 |
| --- | --- |
| CCCCN1[C@H](CO)C(O)[C@H]1CO | < 3.52 |
| CCCCN1[C@@H](CO)C(O)[C@@H]1CO | < 3.52 |

Now for another entry.
Fill in reported pIC50 for this entry: "CCCCCCCCCN1[C@H](CO)C(O)[C@H]1CO"
< 3.52
